Entry source: paper PMC6774960

Readout Label: melting point

Chemical Smiles: COc1ccc(C(=Cc2ccc(OC(F)(F)F)cc2)C(=O)O)cc1
melting point: 159 to 160 °C

Chemical Smiles: COc1cc(C(=Cc2ccc(OC)c(OC)c2Cl)C(=O)O)cc(OC)c1OC
melting point: 171 to 173 °C

Chemical Smiles: COc1cc(C(=Cc2cc([N+](=O)[O-])ccc2Cl)C(=O)O)cc(OC)c1OC
melting point: 247 to 248 °C

Chemical Smiles: COc1ccc(C=C(C(=O)O)c2cc(C)cc(C)c2)cc1
melting point: 198 to 200 °C

Query string: So what's the measured melting point for this one? COc1cc(C(=Cc2c(Cl)ccc(Cl)c2Cl)C(=O)O)cc(OC)c1OC
Result string: 203 to 204 °C
